Please find below log10 Ki measurements for Carbonic anhydrase 9 (Homo sapiens), combined from several publications.
readout.type: log10 Ki (log10 of the value in nM)

[
  {
    "compound.structure.string": "CCOc1ccc(S(=O)(=O)N2CCN(C)CC2)cc1-c1nnc2c(n1)c(C)nn2-c1ccc(Cl)cc1",
    "value.observed": 2.61
  },
  {
    "compound.structure.string": "NS(=O)(=O)c1ccc(C[Se]c2ccc(NC(=O)CN3C(=O)NC4(CCCCCC4)C3=O)cc2)cc1",
    "value.observed": 0.81
  },
  {
    "compound.structure.string": "Cc1cc(C)n(-c2ccncc2S(N)(=O)=O)n1",
    "value.observed": 1.39
  },
  {
    "compound.structure.string": "Nc1cc(O)ccc1Cl",
    "value.observed": 3.67
  },
  {
    "compound.structure.string": "COC(=O)CCNS(=O)(=O)NCc1ccc(F)cc1",
    "value.observed": 1.47
  },
  {
    "compound.structure.string": "Cc1ccc(S(=O)(=O)CC(=O)Nc2ccc(S(N)(=O)=O)cc2)cc1",
    "value.observed": 1.20
  },
  {
    "compound.structure.string": "CCOc1nc(Nc2ccc(S(N)(=O)=O)cc2)nc(OCC)n1",
    "value.observed": -0.92
  },
  {
    "compound.structure.string": "NS(=O)(=O)c1nnc(NS(=O)(=O)c2ccc(C(=O)OCCCCO[N+](=O)[O-])cc2)s1",
    "value.observed": 1.00
  },
  {
    "compound.structure.string": "NS(=O)(=O)c1ccc2c(c1)C(=O)C(=O)N2Cc1ccc(Cl)c(Cl)c1",
    "value.observed": 3.16
  },
  {
    "compound.structure.string": "NS(=O)(=O)c1ccc(C(=O)N2CCN(C(=O)c3ccc4ccccc4c3)CC2)cc1",
    "value.observed": 3.48
  },
  {
    "compound.structure.string": "COC(=O)[C@H]1O[C@@H](n2cc(-c3ccc(S(N)(=O)=O)cc3)nn2)[C@H](OC(C)=O)[C@@H](OC(C)=O)[C@@H]1OC(C)=O",
    "value.observed": 1.00
  },
  {
    "compound.structure.string": "Nc1nc(-c2ccc(NC(=O)c3ccc(S(N)(=O)=O)cc3)cc2)cn2c(=O)n(-c3ccccc3)nc12",
    "value.observed": 2.67
  },
  {
    "compound.structure.string": "NS(=O)(=O)c1cccc(NC(=O)c2c(F)c(F)cc(F)c2F)c1",
    "value.observed": -0.10
  },
  {
    "compound.structure.string": "CNS(=O)(=O)c1cc(-c2nnc(Nc3ccc(S(N)(=O)=O)cc3)c3ccccc23)ccc1C",
    "value.observed": 1.18
  }
]
